Biological target: Cytochrome P450 2C9 (Homo sapiens) (UniProt P11712)
Sequence (P11712 whole entry, looked up): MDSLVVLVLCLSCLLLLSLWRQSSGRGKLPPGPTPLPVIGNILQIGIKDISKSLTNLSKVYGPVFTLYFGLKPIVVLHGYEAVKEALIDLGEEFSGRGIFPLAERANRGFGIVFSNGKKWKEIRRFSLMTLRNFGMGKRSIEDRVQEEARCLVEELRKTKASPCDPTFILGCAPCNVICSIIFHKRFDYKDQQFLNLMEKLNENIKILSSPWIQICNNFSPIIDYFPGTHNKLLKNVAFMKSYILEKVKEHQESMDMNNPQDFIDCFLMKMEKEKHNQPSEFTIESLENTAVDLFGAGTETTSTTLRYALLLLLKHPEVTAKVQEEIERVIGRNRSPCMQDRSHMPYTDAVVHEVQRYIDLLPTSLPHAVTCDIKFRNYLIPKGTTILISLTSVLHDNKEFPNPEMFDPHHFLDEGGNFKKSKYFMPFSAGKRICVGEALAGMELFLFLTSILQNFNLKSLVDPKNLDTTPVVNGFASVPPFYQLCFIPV
Assay: Cytochrome P450 family 2 subfamily C member 9 (CYP2C9) small molecule antagonists: luciferase biochemical (cell-free) qHTS assay (AID 1645842); also: nearly all actives have a fitted effect of over 55% in size
Details: P450-Glo CYP2C9 enzyme assay, luciferin luminescence; series mostly up to 57.4 µM
Results filed as inconclusive are left out. The source made the active and inactive calls. Calls follow the shape of the dose curve; as a rule, active = well fitted inhibition curve with a large enough effect in the repeat runs; inconclusive = weak or mixed curves; inactive = no such curve, though single readings can be large or run the other way.
Possible outcomes: active, inactive

| molecule | classification |
| --- | --- |
| CCCCCCCCC=CCCCCCCCC(=O)NCCOC(=O)CC(C(=O)O)S(=O)(=O)O (configuration not stated) | active |
| Cc1noc(/C=C/c2cccs2)c1S(=O)(=O)N1CCC(C(=O)NCc2ccc(Cl)cc2)CC1 | active |
| COc1ccccc1OCCn1c(NC(=O)c2ccccc2Cl)nc2ccccc21 | active |
| CCOC(=O)c1cnc2ccc(OC)cc2c1NCCc1ccc(OC)c(OC)c1 | active |
| COc1ccc(-c2nc(SCC(=O)Nc3ccc4c(c3)OCO4)c(-c3ccc(OC)cc3)[nH]2)cc1 | active |
| CC[C@H](CO)Nc1cc(NCc2ccc(-c3ccccn3)cc2)c2ncn(C(C)C)c2n1 | active |
| COc1ccccc1NC(=O)Cc1c(C(=O)O)[nH]c2ccc(Cl)cc12 | inactive |
| CCC(C)Nc1cc(C(=O)NC2CC3CCC(C2)N3c2ccc(C(=O)C3CC3)cn2)c(C)cc1C(N)=O (configuration not stated) | active |
| Cc1ccc(C2=Nc3ccccc3N(CC(=O)Nc3ccccc3F)C(=O)C2)cc1C | inactive |
| C=CC(C)(O)CCC=C(C)CCC=C(C)C (configuration not stated) | active |
| OC[C@H]1O[C@@H]2O[C@H]3[C@H](O)[C@@H](O)[C@@H](O[C@H]4[C@H](O)[C@@H](O)[C@@H](O[C@H]5[C@H](O)[C@@H](O)[C@@H](O[C@H]6[C@H](O)[C@@H](O)[C@@H](O[C@H]7[C@H](O)[C@@H](O)[C@@H](O[C@H]1[C@H](O)[C@@H]2O)O[C@@H]7CO)O[C@@H]6CO)O[C@@H]5CO)O[C@@H]4CO)O[C@@H]3CO | inactive |
| Oc1cccc(C(Nc2ccccn2)c2ccc3cccnc3c2O)c1Cl (configuration not stated) | active |
| CCCCCCCCCCCCCCCCNc1ccc(C(=O)O)cc1 | inactive |
| CC(C)(C)c1ccc(-c2nc(SCC(=O)Nc3ccc(Cl)cc3)[nH]c(=O)c2C#N)cc1 | active |
| Cc1nnc(N2CCC(C(=O)NCCc3ccccc3Cl)CC2)c2nn(-c3ccccc3)c(C)c12 | active |
| CC1=C(C(=O)Nc2nnc(C)s2)C(c2ccccc2Cl)N=C(Nc2nc3ccccc3o2)N1 (configuration not stated) | active |
| Cc1ccc(S(=O)(=O)N[C@@H]2CCCC[C@H]2O)cc1 | inactive |
| CCOc1ccccc1NC(=O)Nc1nnc(N2CCCC(C)C2)s1 (configuration not stated) | active |
| Cc1ccn2c(Nc3ccccc3C)c(-c3ccccn3)nc2c1 | active |
| O=C(NC1CCCCC1)c1ccc(CSc2nc3cccnc3n2Cc2ccccc2F)cc1 | active |
| CNS(=O)(=O)c1ccc(Cc2c(-c3cccc(-c4ccccc4)c3)[nH]n(-c3nc(C(=O)O)cs3)c2=O)cc1 | active |
| C=CC1=C(C(=O)O)N2C(=O)[C@@H](NC(=O)/C(=N\OCC(=O)O)c3csc(N)n3)[C@H]2SC1 | inactive |

These measurements were taken from PubChem BioAssay (NCATS).
